These data points were gathered from ChEMBL document CHEMBL1201862.

# System: ACHN
# test: NCI tumour cell line growth inhibition, 48 h
Active and inactive are the calls of the source. Rule as the data show it: active = GI50 up to about 1.1 µM and inactive = higher.
Outcome codes: active, inactive

{"compound": "CCOC(=O)C1Cc2c(ccc(OC)c2OC)C(=O)C1N (stereo unspecified)", "target_system": "ACHN", "class_assignment": "inactive"}
{"compound": "CC(=O)OC(/C=C/c1ccccc1)=C(OC(C)C)/C1=C(\\c2ccccc2)SCCCSC1=O", "target_system": "ACHN", "class_assignment": "inactive"}
{"compound": "CCOC(=O)/C(=C\\NC(C)(C)C)c1nc2ccccc2o1", "target_system": "ACHN", "class_assignment": "inactive"}
{"compound": "COC(=O)c1c(OC(C)=O)ccc2c1c1c(OC(C)=O)c3ccccc3c(OC(C)=O)c1n2C", "target_system": "ACHN", "class_assignment": "inactive"}
{"compound": "COc1ccc2c(c1)C(=O)Cc1ccccc1CC2", "target_system": "ACHN", "class_assignment": "inactive"}
{"compound": "CC(C)SC(NC(=O)C1C(C)(C)CCC1(C)C)C(=O)O (stereo unspecified)", "target_system": "ACHN", "class_assignment": "inactive"}
{"compound": "CC1C[C@]2(C)C(=O)N(c3ccccc3)C(=N)[C@@H]2N(C)c2ccccc21 (stereo partly specified)", "target_system": "ACHN", "class_assignment": "inactive"}
{"compound": "Cn1c(COC(=O)NC2CCCCC2)c(COC(=O)NC2CCCCC2)c2ccc3ccccc3c21", "target_system": "ACHN", "class_assignment": "inactive"}
{"compound": "C/C(=N\\Nc1nc2ccccc2s1)c1ccncn1", "target_system": "ACHN", "class_assignment": "active"}
{"compound": "COc1ccc2c(c1)C(=O)CC(N)C2 (stereo unspecified)", "target_system": "ACHN", "class_assignment": "inactive"}
{"compound": "O/N=C1\\CSc2ccccc2C1", "target_system": "ACHN", "class_assignment": "inactive"}
